B1: TPR 5TU (parent)
chain: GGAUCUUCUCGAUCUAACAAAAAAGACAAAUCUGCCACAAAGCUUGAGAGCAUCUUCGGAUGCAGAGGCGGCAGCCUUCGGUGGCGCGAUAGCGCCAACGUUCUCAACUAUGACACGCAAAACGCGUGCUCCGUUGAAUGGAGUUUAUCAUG

Variants of: B1
procedure.details: polymerase ribozyme fitness, log enrichment relative to wild type (log ratio); higher = more active; in vitro selection for triplet polymerase activity
Fewer inactive variants are shown than the library holds.
Threshold check on polymerase ribozyme fitness (log ratio): at or above -2 gives Fulfilled, strictly below gives Not fulfilled.

Check this variant for polymerase ribozyme fitness (log ratio) at or above -2: A12U U56A C93U A147G Fulfilled

Hi, just wondering whether C75U C95G C96G shows polymerase ribozyme fitness (log ratio) of -2 or higher. Not fulfilled

Is polymerase ribozyme fitness (log ratio) for A49U G50C G65C A97U U101G C129G G143U at or above -2? Not fulfilled

State whether the measured polymerase ribozyme fitness (log ratio) reaches -2, counting equality as reaching it, for G94A C116G Fulfilled

Test whether the variant U13A A20U U77A records polymerase ribozyme fitness (log ratio) of -2 or higher. Not fulfilled

Please indicate if the recorded polymerase ribozyme fitness (log ratio) for G83A A115C A122U U134A meets or exceeds -2. Not fulfilled

Could you please find out whether U9G A16U A64U C85G U135C U144G A150U has polymerase ribozyme fitness (log ratio) that meets -2 or exceeds it? Not fulfilled

Kindly determine if polymerase ribozyme fitness (log ratio) recorded for G68C U78A is above or exactly -2. Not fulfilled

Determine whether measured polymerase ribozyme fitness (log ratio) meets or exceeds -2 for G58A C87U Fulfilled

Check this variant for polymerase ribozyme fitness (log ratio) at or above -2: A24U C35U C38G A89U A91U Not fulfilled

Does the variant A37G have recorded polymerase ribozyme fitness (log ratio) that is -2 or more? Fulfilled

Please tell me: is the variant C69G C85A G94U at or over -2 in terms of polymerase ribozyme fitness (log ratio)? Fulfilled

Is the recorded value of polymerase ribozyme fitness (log ratio) equal to or greater than -2 for this variant? G62C A120G Fulfilled

Reported polymerase ribozyme fitness (log ratio) at or above -2? A19C A24G G94U C95G Not fulfilled

Hi, just wondering whether C38U G81A C99G A120U G124C shows polymerase ribozyme fitness (log ratio) of -2 or higher. Not fulfilled

Is reported polymerase ribozyme fitness (log ratio) greater than or equal to -2 here: C36A A121U Not fulfilled

Hello, I need to know if U9A C32A U33G A49U C51U U53A C54U G84U C103A C108G C118G C149U has measured polymerase ribozyme fitness (log ratio) not below -2. Thanks! Not fulfilled

Quick check, polymerase ribozyme fitness (log ratio) >= -2? C14U A20U A24U G42A A49C C57A A60C U104G C114A A115C Not fulfilled

Decide: polymerase ribozyme fitness (log ratio) of A60U C87G >= -2? Not fulfilled

Record A47U A73U A147C ; criterion: polymerase ribozyme fitness (log ratio) no lower than -2. Met? Not fulfilled

Does polymerase ribozyme fitness (log ratio) meet or surpass -2 for U13A C32G A37U A52G G94A G128A U146G ? Not fulfilled

Threshold query (polymerase ribozyme fitness (log ratio) >= -2) on A49G A60U Fulfilled

Given U33A C96A , state whether its polymerase ribozyme fitness (log ratio) is at least -2. Not fulfilled

Please check the record A66G C93U A107U A138U U139A and state if its polymerase ribozyme fitness (log ratio) is at or above -2. Not fulfilled

Evaluate U33C A49C C57U U145A U151A : polymerase ribozyme fitness (log ratio) at minimum -2? Not fulfilled

Entry A22G A28G A52U G80A C93G U101C A113U G140U : is its polymerase ribozyme fitness (log ratio) no less than -2? Not fulfilled

Hello, I need to know if A12C A37C C72A U90G U101A C103U A138G A142U has measured polymerase ribozyme fitness (log ratio) not below -2. Thanks! Not fulfilled

Has G48C U82G G128C U135A a recorded polymerase ribozyme fitness (log ratio) greater than or equal to -2? Not fulfilled

Form field: polymerase ribozyme fitness (log ratio) at least -2? Entry: G86A G143C Not fulfilled

Has A19C C51A C75A C93A G117C a recorded polymerase ribozyme fitness (log ratio) greater than or equal to -2? Not fulfilled

Dear colleague, could you confirm whether C27G A40U G58A A73C C76U C95G has polymerase ribozyme fitness (log ratio) at or above -2? Not fulfilled

Entry A41C A113U C114A : is its polymerase ribozyme fitness (log ratio) no less than -2? Not fulfilled

Quick check: does A39C U145C have polymerase ribozyme fitness (log ratio) greater than or equal to -2? Fulfilled

hey, is polymerase ribozyme fitness (log ratio) for this one >= -2? A16C U45G C114U Not fulfilled

In plain terms: is recorded polymerase ribozyme fitness (log ratio) at least -2 for C93A U130A ? Not fulfilled

Reference source for all entries: the RNAGym collection of RNA variant scans (doi:10.1073/pnas.2313332121)
